- ASSAYED_TARGET: Protein phosphatase 1D (Homo sapiens, UniProt O15297)
- Sequence (O15297 whole entry): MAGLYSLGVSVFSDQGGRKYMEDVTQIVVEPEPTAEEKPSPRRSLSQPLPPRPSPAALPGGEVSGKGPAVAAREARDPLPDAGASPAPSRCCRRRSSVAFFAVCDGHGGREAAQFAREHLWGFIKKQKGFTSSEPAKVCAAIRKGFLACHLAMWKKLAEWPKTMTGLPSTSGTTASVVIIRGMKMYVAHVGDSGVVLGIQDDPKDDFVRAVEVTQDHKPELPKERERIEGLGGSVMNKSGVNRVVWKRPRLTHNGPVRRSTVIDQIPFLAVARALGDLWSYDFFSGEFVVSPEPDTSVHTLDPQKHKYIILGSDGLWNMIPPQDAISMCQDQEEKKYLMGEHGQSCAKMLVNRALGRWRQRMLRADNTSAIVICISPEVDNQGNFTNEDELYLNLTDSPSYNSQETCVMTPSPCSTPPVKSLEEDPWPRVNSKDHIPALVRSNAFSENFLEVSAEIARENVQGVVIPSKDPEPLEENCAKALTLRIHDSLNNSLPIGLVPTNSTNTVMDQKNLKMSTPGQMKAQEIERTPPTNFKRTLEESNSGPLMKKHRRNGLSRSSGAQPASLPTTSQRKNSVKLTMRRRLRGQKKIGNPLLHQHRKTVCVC
ASSAY_ENDPOINT: pIC50
Remember, pIC50 is on a log scale: it is -log10 of the molar concentration.

[ask] Notebook entry, Protein phosphatase 1D (Homo sapiens, UniProt O15297) assay: pIC50 of CC[Si](CC)(CC)O[C@@H]1C[C@H](C)C[C@@H]2[C@@H]1C[C@H](O[Si](C)(C)C(C)(C)C)[C@@H]1[C@](C)(CO)C[C@H](O)C[C@@]21C = ?
[reply] 7.06

Values were extracted from ChEMBL document CHEMBL3612007.
